B1: MATN2 (parent)
chain: VNVPGSFVCQCYSGYALAEDGKRC

variants of: B1; assay: protein stability index of a GFP-peptide fusion (GPS, HEK-293T) (PSI 1-6); higher = more stable; settings: c terminus: a fixed tail appended;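 further: lentivirally expressed fusions sorted by FACS into six bins by GFP to DsRed ratio, PSI derived from sequencing read proportions per bin multiplied by bin number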
recorded metric: protein stability index
The answer should be written as a number, with no unit following it.

Here is how some variants turned out for protein stability index.
VNVPGSFVMQCYSGYALAEDGKRC [C9M] ... 2.28
VNVPGYFVCQCYSGYALAEDGKRC [S6Y] ... 1.87
VNIPGSFVCQCYSGYALAEDGKRC [V3I] ... 1.23
VNVPGSFVCQCYSGYALAEDGARC [K22A] ... 2.6
VNVPGSFNCQCYSGYALAEDGKRC [V8N] ... 2.51
VNVPGSFVCQCYSHYALAEDGKRC [G14H] ... 2.37
VNVGGSFVCQCYSGYALAEDGKRC [P4G] ... 1.86
VNVPGSFVCQCYSGYALAENGKRC [D20N] ... 1.34
VNVPGSFVCQCYSGYALAEKGKRC [D20K] ... 1.65
VNVPGSFVCQCYSGYGLAEDGKRC [A16G] ... 2.58

Please examine the following record next.
What value of measured protein stability index is listed for VNVRGSFVCQCYSGYALAEDGKRC [P4R] ?
1.33
